tgt: human S1P1 receptor (Homo sapiens, UniProt P21453)
Construct: membranes used
Sequence (P21453 whole entry): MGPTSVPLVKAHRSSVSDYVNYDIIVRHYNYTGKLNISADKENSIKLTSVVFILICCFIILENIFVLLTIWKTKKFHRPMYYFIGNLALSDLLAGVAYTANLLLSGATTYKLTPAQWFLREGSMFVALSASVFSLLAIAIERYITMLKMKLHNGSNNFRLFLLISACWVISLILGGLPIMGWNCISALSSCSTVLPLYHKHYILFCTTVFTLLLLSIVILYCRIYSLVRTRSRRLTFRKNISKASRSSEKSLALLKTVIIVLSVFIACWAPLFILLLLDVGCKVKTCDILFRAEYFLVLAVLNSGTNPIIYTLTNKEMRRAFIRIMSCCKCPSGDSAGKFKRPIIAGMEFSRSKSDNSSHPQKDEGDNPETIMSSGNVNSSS
assay overview: GTP γ35S binding assay for S1P1 activity
experimental conditions: membranes of cells stably expressing the S1P1 receptor, test compounds 0.08 to 5,000 nM, 30 min at 25° C.
experimental readout: EC50 (nM)

Some entries whose results are on file:
C/C(=N\OCC(Oc1ccc(C)c(C)c1)c1cccc(Cl)c1)c1ccc(CN2CC(C(=O)O)C2)cc1 (centres unmarked) ... 163
C/C(=N\OCC(Cc1ccc(C)c(C)c1)c1cccc(Cl)c1)c1ccc(CN2CC(C(=O)O)C2)cc1 (centres unmarked) ... 9.05
C/C(=N\OCc1ccc(CN2CC(C(=O)O)C2)cc1)C(Cc1ccc(C)c(C)c1)c1cc(F)cc(F)c1 (centres unmarked) ... 17.5

a = C/C(=N\OCC(Cc1ccc(C)c(C)c1)c1cccc(C)c1)c1ccc(CN2CC(C(=O)O)C2)cc1 (centres unmarked)
b = C/C(=N\OCc1ccc(CN2CC(C(=O)O)C2)cc1)C(Cc1ccc(C)c(C)c1)c1cccc(Cl)c1 (centres unmarked)
Task item: Given a and given b , which shows the smaller recorded EC50? Your answer should be the label attached to the chosen record.
Reply: a
